Reported values of composite z-score for individual entries
Target: Left-right determination factor 2 (Homo sapiens)
Experiment: LEFTY2 binders on small-molecule microarrays, primary screen, biochemical, small-molecule microarray, 635 nm fluorescence scan (AID 1110)
Conditions: LEFTY2 binding, higher = more signal
Please respond with just the number, no unit label.

Sample records with composite z-score:
MOLECULE	REPORTED_PROPERTY	OBSERVED_MEASUREMENT
Cc1ccc(S(=O)(=O)N[C@H]2COC(=O)CC=C[C@H](C)[C@@H](NS(=O)(=O)c3ccc(C)cc3)COC(=O)CC=C[C@@H]2C)cc1	composite z-score	0.518
CCOC(=O)CCN1C(=O)[C@H]2[C@H]3[C@H](O)[C@H](O)CC(=NOCc4ccccc4)[C@H]3CC[C@H]2C1=O	composite z-score	0.389
O=C(NN=C1C[C@@H](O)[C@@H](O)[C@@H]2[C@@H]3C(=O)N(C[C@@H]4CCCO4)C(=O)[C@@H]3CC[C@H]12)OCc1ccccc1	composite z-score	-0.156
CC(C)CON=C1C[C@@H](O)[C@@H](O)[C@@H]2[C@@H]3C(=O)N(c4cccc(Oc5ccccc5)c4)C(=O)[C@@H]3CC[C@@H]12	composite z-score	0.374
COC(=O)CC=C[C@@H](C)[C@@H](C=NOCC[C@@H]1C=C[C@H](OC(C)=O)[C@@H](COC(C)=O)O1)NS(=O)(=O)c1ccc(C)cc1	composite z-score	0.851
CC(C)C[C@H](NC(=O)CCC1CC(OC(=O)NCc2cccc3ccccc23)CC2(CCCC(COC(=O)NCc3ccccc3)O2)O1)C(=O)NCC(c1ccccc1)c1ccccc1 (some centres undefined)	composite z-score	0.913

Query block: Form field: reported composite z-score of CCOC(=O)NN=C1C[C@@H](O)[C@@H](O)[C@@H]2[C@@H]3C(=O)N([C@@H](C)c4ccccc4)C(=O)[C@@H]3CC[C@H]12
Result block: 0.0792

Query block: What value of composite z-score has been recorded for this entry: CO[C@@H]1C=CCC(=O)N[C@@H](C)C(=O)OC[C@@H](OC)[C@H](C)CCCC(=O)OC[C@H]1C
Result block: 1.41

Query block: What measured composite z-score goes with CC(C)CON=C1C[C@@H](O)[C@@H](O)[C@@H]2[C@@H]3C(=O)N(Cc4ccc5c(c4)OCO5)C(=O)[C@@H]3CC[C@H]12 ?
Result block: 0.375

Query block: Item CC(C)=CCCC(C)=CCON=C1C[C@@H](O)[C@@H](O)[C@@H]2[C@@H]3C(=O)N(C4CCCCC4)C(=O)[C@@H]3CC[C@@H]12 has what recorded composite z-score?
Result block: 0.464
